target_system: His-tagged recombinant human Gal-3 (hGal-3) (Homo sapiens (Human), UniProt P17931)
Sequence (P17931 whole entry): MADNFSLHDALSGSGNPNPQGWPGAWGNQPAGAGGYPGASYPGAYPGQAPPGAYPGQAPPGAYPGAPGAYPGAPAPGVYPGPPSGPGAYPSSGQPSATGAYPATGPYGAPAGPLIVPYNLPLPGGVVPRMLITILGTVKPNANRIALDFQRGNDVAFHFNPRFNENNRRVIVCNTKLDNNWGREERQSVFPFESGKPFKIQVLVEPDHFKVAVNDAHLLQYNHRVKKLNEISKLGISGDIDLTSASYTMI
experimental_protocol: Gal-3 HTRF assay (hGal-3 / B-ASF)
Assay type: binding
condition_summary: 15 nM hGal-3, 15 nM B-ASF, table after Example 20, read-out: hGal3 IC50
pIC50: −log10 of the molar value.
assay_metric: pIC50

O=C(CO[C@@H]1[C@@H](n2cc(-c3cc(F)c(F)c(F)c3)nn2)[C@@H](O)[C@@H](CO)O[C@@H]1Sc1ccc(Cl)c(Cl)c1)N1CC(O)C1 [Example 31] ... 7.05

[P] O=C(CO[C@@H]1[C@@H](n2cc(-c3cc(F)c(F)c(F)c3)nn2)[C@@H](O)[C@@H](CO)O[C@@H]1Sc1ccc(Cl)c(Cl)c1)N1CCC[C@@H](O)C1 [Example 23]
[Q] O=C(CO[C@@H]1[C@@H](n2cc(-c3cc(F)c(F)c(F)c3)nn2)[C@@H](O)[C@@H](CO)O[C@@H]1Sc1ccc(Cl)c(Cl)c1)N1CCCC(F)(F)C1 [Example 24]
I need your help: which of the pair P , Q has higher pIC50? Output the label that corresponds to your choice.
P
(P: 7.22, Q: 6.82)
